Taken from the supplement of paper PMC10567573.

B1: WDR41 (parent)
chain: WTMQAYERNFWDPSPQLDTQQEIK

Variants of: B1
method-notes: protein stability index of a GFP-peptide fusion (GPS, HEK-293T) (PSI 1-6); higher = more stable;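 note: lentivirally expressed fusions sorted by FACS into six bins by GFP to DsRed ratio, PSI derived from sequencing read proportions per bin multiplied by bin number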
condition-set: c terminus: a fixed tail appended
Decide using protein stability index: a value greater than or equal to 2 is 1, a smaller one is 0.

(Q) Given S14C , state whether its protein stability index is at least 2.
(A) 1

(Q) Given T19N , state whether its protein stability index is at least 2.
(A) 1

(Q) Given T19P , state whether its protein stability index is at least 2.
(A) 1

(Q) Given P15T , state whether its protein stability index is at least 2.
(A) 1

(Q) Given P15D , state whether its protein stability index is at least 2.
(A) 1

(Q) Given L17F , state whether its protein stability index is at least 2.
(A) 1

(Q) Given E22Q , state whether its protein stability index is at least 2.
(A) 1

(Q) Given K24T , state whether its protein stability index is at least 2.
(A) 1

(Q) Given Y6H , state whether its protein stability index is at least 2.
(A) 0

(Q) Given E7I , state whether its protein stability index is at least 2.
(A) 0

(Q) Given Q21D , state whether its protein stability index is at least 2.
(A) 1

(Q) Given P13I , state whether its protein stability index is at least 2.
(A) 1

(Q) Given W1D , state whether its protein stability index is at least 2.
(A) 1

(Q) Given N9L , state whether its protein stability index is at least 2.
(A) 0

(Q) Given Q4L , state whether its protein stability index is at least 2.
(A) 1

(Q) Given P15M , state whether its protein stability index is at least 2.
(A) 1

(Q) Given S14R , state whether its protein stability index is at least 2.
(A) 1
